These data points were gathered from patent US20240368177A1.

System: HCT116-MTAP-KO
Assay: Cell killing in HCT116 isogenic pair (Cell Titer-Glo viability), MTAP knock-out cells
Assay type: cell-based, human
Conditions: Homo sapiens, HCT-116, 144 h, 6 days incubation, 0-10 μM, * = more than 50% viability inhibition at tested concentration without a full curve
Text: HCT116 cell line (ATCC, CCL-247) was isolated from the colon of an adult with colon cancer. It has a mutation in codon 13 of the ras proto-oncogene and can be used as a positive control for PCR assays of mutation in this codon. HCT116-MTAP-KO was knocked-out-MTAP-gene based HCT116, and a single clone was passed for this assay. HCT116-mock-RNA-KO was knocked-out-mock-gene based HCT116 with MTAP wildtype genotype. The base medium for HCT116 isogenic pair is RPMI 1640, HEPES (Gibco, 22400105). […]
REPORTED ENDPOINT: IC50 (nM)
Field format: number, assumed nM, no unit text.

CN(C(=O)c1cc2nc(N)c3c(c2[nH]1)COC3)[C@@H]1COCc2cc(Br)cc(F)c21 ... 7.2

Query `C[C@H](c1ncc(C(F)(F)F)cc1F)N(C(=O)c1cc2nc(N)c3c(c2[nH]1)COC3)C1CCC1` yields IC50 of 19

Query `C[C@@H](c1ccc(C2CC2)cc1F)N(C)C(=O)c1cc2nc(N)c3c(c2[nH]1)COC3` yields IC50 of 478

Query `C[C@H]1OCc2c1c(N)nc1cc(C(=O)N(C)[C@@H](C)c3ccc(Br)cc3F)[nH]c21` yields IC50 of 270
